Assay: Plasma pharmacokinetics, multiple-ascending-dose phase 1 study
Type: in vivo, human
Conditions: human, plasma, oral, 600 mg, 600 mg Q12h, day 10; geometric mean; read-out: Vz/F,ss
Protocol: This study was conducted in full accordance with the Declaration of Helsinki and good clinical practices (GCP) at Quintiles Phase One Services in Overland Park, KS. […] After a screening period of up to 35 days, eligible subjects were admitted to the study center for baseline evaluations on day −1. […] During the inpatient period, subjects were monitored for safety and pharmacokinetics (PK). […]
measuredEndpoint: Vd/F (L)

> print(dat)
                                  smilesstr  datavalue
1  O=c1cc(NCCCN[C@@H]2CCOc3c(Br)cc(Br)cc32)[nH]c2ccsc12       1400
